All values here come from patent US20240182513A1.

Each record here notes measured Treatment 2: Rhamnolipid and Filtration Cf.
- test: Example 2.1 rhamnolipid precipitation, filtration, centrifugation: lead
- condition-context: lead concentration after treatment; molar ratio 2 to 1
recorded-metric: Treatment 2: Rhamnolipid and Filtration Cf (mmol/L)

>  <compound>
CCCCCCCCCC(CC(=O)O)OC(=O)CC(CCCCCCCCC)OC1O[C@@H](C)[C@H](O)[C@@H](O)[C@H]1O (stereo partly shown)

>  <result-unit>
mmol/L

>  <readout-number>
0.069

$$$$
>  <compound>
CCCCCCCCCCCC(CC(=O)O)OC1O[C@@H](C)[C@H](O)[C@@H](O)[C@H]1O (stereo partly shown)

>  <result-unit>
mmol/L

>  <readout-number>
0.031

$$$$
>  <compound>
CCCCCCCCCCCCCCCC(CC(=O)O)OC1O[C@@H](C)[C@H](O)[C@@H](O)[C@H]1O (stereo partly shown)

>  <result-unit>
mmol/L

>  <readout-number>
0.027

$$$$
>  <compound>
CCCC(CC(=O)O)OC1O[C@@H](C)[C@H](O)[C@@H](O)[C@H]1O (stereo partly shown)

>  <result-unit>
mmol/L

>  <readout-number>
0.115

$$$$

----------
- test: Example 2.1 rhamnolipid precipitation, filtration, centrifugation: magnesium
- condition-context: magnesium concentration after treatment; molar ratio 10 to 1
recorded-metric: Treatment 3: Rhamnolipid and Centrifugation Cc (mmol/L)

>  <molecule>
CCCCCCCCCCCCCCCC(CC(=O)O)OC1O[C@@H](C)[C@H](O)[C@@H](O)[C@H]1O (some centres unmarked) [Rha C18]

>  <readout-number>
0.107

$$$$
>  <molecule>
CCCC(CC(=O)O)OC1O[C@@H](C)[C@H](O)[C@@H](O)[C@H]1O (some centres unmarked) [Rha C6]

>  <readout-number>
0.272

$$$$
>  <molecule>
CCCCCCCCCC(CC(=O)O)OC(=O)CC(CCCCCCCCC)OC1O[C@@H](C)[C@H](O)[C@@H](O)[C@H]1O (some centres unmarked) [Rha C12C12]

>  <readout-number>
0.266

$$$$
>  <molecule>
CCCCCCCCCCCC(CC(=O)O)OC1O[C@@H](C)[C@H](O)[C@@H](O)[C@H]1O (some centres unmarked) [Rha C14]

>  <readout-number>
0.219

$$$$
>  <molecule>
CCCCCCCC(CC(=O)O)OC1O[C@@H](C)[C@H](O)[C@@H](O)[C@H]1O (some centres unmarked) [Rha C10]

>  <readout-number>
0.490

$$$$

----------
- test: Example 2.1 rhamnolipid precipitation, filtration, centrifugation: lead
- condition-context: lead concentration after treatment; molar ratio 10 to 1
Response field label takes true (1) when Treatment 3: Rhamnolipid and Centrifugation Cc is strictly below 0.3 mmol/L and false (0) in all other cases.

>  <compound>
CCCCCCCCCCCC(CC(=O)O)OC1O[C@@H](C)[C@H](O)[C@@H](O)[C@H]1O (some centres unmarked)

>  <group>
false (0)

$$$$
>  <compound>
CCCC(CC(=O)O)OC1O[C@@H](C)[C@H](O)[C@@H](O)[C@H]1O (some centres unmarked)

>  <group>
false (0)

$$$$
>  <compound>
CCCCCCCCCC(CC(=O)O)OC(=O)CC(CCCCCCCCC)OC1O[C@@H](C)[C@H](O)[C@@H](O)[C@H]1O (some centres unmarked)

>  <group>
true (1)

$$$$
>  <compound>
CCCCCCCC(CC(=O)O)OC1O[C@@H](C)[C@H](O)[C@@H](O)[C@H]1O (some centres unmarked)

>  <group>
true (1)

$$$$
>  <compound>
CCCCCCCCCCCCCCCC(CC(=O)O)OC1O[C@@H](C)[C@H](O)[C@@H](O)[C@H]1O (some centres unmarked)

>  <group>
true (1)

$$$$

----------
- test: Example 2.1 rhamnolipid precipitation, filtration, centrifugation: lead
- condition-context: lead concentration after treatment; molar ratio 5 to 1
Label F if Treatment 3: Rhamnolipid and Centrifugation Cc falls below 0.05 mmol/L; label T in every other case.

>  <compound>
CCCCCCCCCCCC(CC(=O)O)OC1O[C@@H](C)[C@H](O)[C@@H](O)[C@H]1O (some centres unmarked)

>  <group>
T

$$$$
>  <compound>
CCCCCCCCCC(CC(=O)O)OC(=O)CC(CCCCCCCCC)OC1O[C@@H](C)[C@H](O)[C@@H](O)[C@H]1O (some centres unmarked)

>  <group>
F

$$$$
>  <compound>
CCCC(CC(=O)O)OC1O[C@@H](C)[C@H](O)[C@@H](O)[C@H]1O (some centres unmarked)

>  <group>
T

$$$$
>  <compound>
CCCCCCCCCCCCCCCC(CC(=O)O)OC1O[C@@H](C)[C@H](O)[C@@H](O)[C@H]1O (some centres unmarked)

>  <group>
F

$$$$
>  <compound>
CCCCCCCC(CC(=O)O)OC1O[C@@H](C)[C@H](O)[C@@H](O)[C@H]1O (some centres unmarked)

>  <group>
T

$$$$

----------
- test: Example 2.1 rhamnolipid precipitation, filtration, centrifugation: magnesium
- condition-context: magnesium concentration after treatment; molar ratio rhamnolipid:magnesium 2 to 1
Each record here notes measured Treatment 1: Rhamnolipid Only Cr.
recorded-metric: Treatment 1: Rhamnolipid Only Cr (mmol/L)

>  <compound>
CCCCCCCCCCCCCCCC(CC(=O)O)OC1O[C@@H](C)[C@H](O)[C@@H](O)[C@H]1O (some centres unmarked)

>  <result-unit>
mmol/L

>  <readout-number>
0.265

$$$$
>  <compound>
CCCC(CC(=O)O)OC1O[C@@H](C)[C@H](O)[C@@H](O)[C@H]1O (some centres unmarked)

>  <result-unit>
mmol/L

>  <readout-number>
0.247

$$$$
>  <compound>
CCCCCCCC(CC(=O)O)OC1O[C@@H](C)[C@H](O)[C@@H](O)[C@H]1O (some centres unmarked)

>  <result-unit>
mmol/L

>  <readout-number>
0.486

$$$$
>  <compound>
CCCCCCCCCCCC(CC(=O)O)OC1O[C@@H](C)[C@H](O)[C@@H](O)[C@H]1O (some centres unmarked)

>  <result-unit>
mmol/L

>  <readout-number>
0.291

$$$$
>  <compound>
CCCCCCCCCC(CC(=O)O)OC(=O)CC(CCCCCCCCC)OC1O[C@@H](C)[C@H](O)[C@@H](O)[C@H]1O (some centres unmarked)

>  <result-unit>
mmol/L

>  <readout-number>
0.281

$$$$

----------
Each record here notes measured Treatment 2: Rhamnolipid and Filtration Cf.
- test: Example 2.1 rhamnolipid precipitation, filtration, centrifugation: lanthanum
- condition-context: lanthanum concentration after treatment; molar ratio 2 to 1
recorded-metric: Treatment 2: Rhamnolipid and Filtration Cf (mmol/L)

>  <compound>
CCCCCCCCCCCC(CC(=O)O)OC1O[C@@H](C)[C@H](O)[C@@H](O)[C@H]1O (some centres unmarked)

>  <readout-number>
0.164

$$$$
>  <compound>
CCCC(CC(=O)O)OC1O[C@@H](C)[C@H](O)[C@@H](O)[C@H]1O (some centres unmarked)

>  <readout-number>
0.143

$$$$
>  <compound>
CCCCCCCCCC(CC(=O)O)OC(=O)CC(CCCCCCCCC)OC1O[C@@H](C)[C@H](O)[C@@H](O)[C@H]1O (some centres unmarked)

>  <readout-number>
0.119

$$$$
>  <compound>
CCCCCCCC(CC(=O)O)OC1O[C@@H](C)[C@H](O)[C@@H](O)[C@H]1O (some centres unmarked)

>  <readout-number>
0.096

$$$$
>  <compound>
CCCCCCCCCCCCCCCC(CC(=O)O)OC1O[C@@H](C)[C@H](O)[C@@H](O)[C@H]1O (some centres unmarked)

>  <readout-number>
0.116

$$$$

----------
- test: Example 2.1 rhamnolipid precipitation, filtration, centrifugation: lanthanum
- condition-context: lanthanum concentration after treatment; molar ratio rhamnolipid:lanthanum 2 to 1
- Protocol: Structural variants of synthetic glycolipids were used to show the effect of the number and length of the hydrophobic tail(s) on rhamnolipid as a chemical precipitant. […] Three glycolipid-based treatments were evaluated to remove metal from solution: (1) the addition of glycolipid with no further treatment (gravitational precipitation), (2) the addition of a glycolipid followed by filtration or (3) the addition of a glycolipid followed by centrifugation. […]
recorded-metric: Treatment 1: Rhamnolipid Only Cr (mmol/L)

>  <molecule>
CCCCCCCC(CC(=O)O)OC1O[C@@H](C)[C@H](O)[C@@H](O)[C@H]1O (some centres unmarked)

>  <result-unit>
mmol/L

>  <readout-number>
0.282

$$$$
>  <molecule>
CCCCCCCCCC(CC(=O)O)OC(=O)CC(CCCCCCCCC)OC1O[C@@H](C)[C@H](O)[C@@H](O)[C@H]1O (some centres unmarked)

>  <result-unit>
mmol/L

>  <readout-number>
0.184

$$$$
>  <molecule>
CCCCCCCCCCCCCCCC(CC(=O)O)OC1O[C@@H](C)[C@H](O)[C@@H](O)[C@H]1O (some centres unmarked)

>  <result-unit>
mmol/L

>  <readout-number>
0.249

$$$$
>  <molecule>
CCCCCCCCCCCC(CC(=O)O)OC1O[C@@H](C)[C@H](O)[C@@H](O)[C@H]1O (some centres unmarked)

>  <result-unit>
mmol/L

>  <readout-number>
0.247

$$$$
>  <molecule>
CCCC(CC(=O)O)OC1O[C@@H](C)[C@H](O)[C@@H](O)[C@H]1O (some centres unmarked)

>  <result-unit>
mmol/L

>  <readout-number>
0.325

$$$$
